assay: NCI Yeast Anticancer Drug Screen. Data for the mlh1 rad18 strain (AID 175); details: S. cerevisiae mlh1 rad18 strain growth inhibition; at 50.0 µM; active compounds read high
This is part of a sample that, as a whole, favours compounds with a hit. Of some 79,000 tested, about 15% had one in any assay.
Rule: criterion met for growth inhibition not less than 70%, criterion not met for anything less.

Q: Form field: growth inhibition at least 70%? Entry: Cc1occc1C(=S)Nc1ccc(Cl)c(C(=O)OCC2CC2)c1
Result: criterion not met

Q: # bool: growth inhibition of OCc1ccc(OCc2ccccc2)c(OCc2ccccc2)c1 >= 70%
Result: criterion met

Q: Identify whether the reported growth inhibition of the following compound is 70% or greater: Clc1ccc2[nH]c(-c3ccccc3)c(-c3ccccn3)c2c1
Result: criterion met

Q: Is the recorded value of growth inhibition equal to or greater than 70% for this compound? CC(=O)OCC1(O)OCC(OC(C)=O)C(OC(C)=O)C1OC(C)=O (stereo unspecified)
Result: criterion not met

Q: hey, is growth inhibition for this one >= 70%? COc1ccc(OC)c(N=Nc2c(C)[nH]n(C(N)=S)c2=O)c1
Result: criterion not met

Q: Please check the record CN(C)CCC(/C=C/c1ccccc1)=N\Nc1ccc(Cl)cc1Cl and state if its growth inhibition is at or above 70%.
Result: criterion met

Q: Decide: is the reported value of growth inhibition for Nc1c(O)c(Cl)cc(Cl)c1Cl equal to or greater than 70%?
Result: criterion met

Q: Could you please find out whether COC(=O)/C=C1/Nc2ccc(Cl)cc2C(=O)NC1=O has growth inhibition that meets 70% or exceeds it?
Result: criterion not met

Q: Could you please find out whether CCC[CH2][Sn]1([CH2]CCC)[O]C(=O)CN=Cc2c(ccc3ccccc23)[O]1 has growth inhibition that meets 70% or exceeds it?
Result: criterion met

Q: Answer whether growth inhibition of COC1CCC(O)C(CO)O1 (stereo unspecified) is greater than or equal to 70%.
Result: criterion met

Q: Given Cc1c2cc(Cl)ccc2cc2c1ccc1ccccc12 , state whether its growth inhibition is at least 70%.
Result: criterion met

Q: Hi, just wondering whether N#CSCc1ccc(CSC#N)c(Cl)c1 shows growth inhibition of 70% or higher.
Result: criterion met

Q: Is growth inhibition for Cc1ccc(O)c(Cc2ccccc2Cl)c1 at or above 70%?
Result: criterion met

Q: Item CCCCN(CCCC)Cc1ccc(NC(C(=O)c2ccccc2)c2ccccc2)cc1 (stereo unspecified) with growth inhibition of 70% or above?
Result: criterion met

Q: Please check the record CCOc1ccccc1N1C(=O)C=CC1=O and state if its growth inhibition is at or above 70%.
Result: criterion met

Q: Given Cc1cc(/C=C/c2cccc[n+]2C)c(C)n1-c1ccccc1 , state whether its growth inhibition is at least 70%.
Result: criterion met

Q: Is growth inhibition for OCc1ccccc1CC(O)(c1ccccc1)c1ccccc1 at or above 70%?
Result: criterion met

Q: Could you verify whether the entry CSC(=S)N/N=C(\C)c1nccnc1C shows growth inhibition of no less than 70%?
Result: criterion met

Q: Quick check: does CCN(CC)CC(O)CNc1ccc(C)c2sc3ccccc3c(=O)c12 (stereo unspecified) have growth inhibition greater than or equal to 70%?
Result: criterion met

Q: Form field: growth inhibition at least 70%? Entry: COC(=O)c1nc2ccc([N+](=O)[O-])cc2n1O
Result: criterion not met

Q: Assess whether reported growth inhibition for Nc1ccc(Sc2c3ccccc3nc3ccccc23)cc1 sits at 70% or higher.
Result: criterion not met

Q: Determine whether this compound has growth inhibition no lower than 70%: O=C(Nc1ccccc1)c1ccc(Cl)cc1Cl
Result: criterion not met

Q: Does Nc1nc(N)c2cc(S(=O)c3ccc4ccccc4c3)ccc2n1 (stereo unspecified) have a reported growth inhibition of at least 70%?
Result: criterion not met

Q: I'd appreciate it if you could say whether O=C=Nc1ccccc1-c1ccc([N+](=O)[O-])cc1Cl has growth inhibition at least equal to 70%.
Result: criterion met
